tested on: HCT116 p53+/+; experiment: CellTiter-Glo (Cell-Titer glow) cytotoxicity assay; format: cell-based, human; details: Homo sapiens, HCT-116; forty-eight hours
OBSERVABLE: pIC50
Give bare numbers, as −log10 of the molar value.

Q: Field request: pIC50 | item: Cn1c(=O)c2[nH]c(Nc3ccccc3)nc2n(C)c1=O
A: 3.62

The origin of these recorded values is patent US20230219957A1.
